Target: Polyadenylate-binding protein 1 (Homo sapiens, UniProt P11940)
Sequence (P11940 whole entry): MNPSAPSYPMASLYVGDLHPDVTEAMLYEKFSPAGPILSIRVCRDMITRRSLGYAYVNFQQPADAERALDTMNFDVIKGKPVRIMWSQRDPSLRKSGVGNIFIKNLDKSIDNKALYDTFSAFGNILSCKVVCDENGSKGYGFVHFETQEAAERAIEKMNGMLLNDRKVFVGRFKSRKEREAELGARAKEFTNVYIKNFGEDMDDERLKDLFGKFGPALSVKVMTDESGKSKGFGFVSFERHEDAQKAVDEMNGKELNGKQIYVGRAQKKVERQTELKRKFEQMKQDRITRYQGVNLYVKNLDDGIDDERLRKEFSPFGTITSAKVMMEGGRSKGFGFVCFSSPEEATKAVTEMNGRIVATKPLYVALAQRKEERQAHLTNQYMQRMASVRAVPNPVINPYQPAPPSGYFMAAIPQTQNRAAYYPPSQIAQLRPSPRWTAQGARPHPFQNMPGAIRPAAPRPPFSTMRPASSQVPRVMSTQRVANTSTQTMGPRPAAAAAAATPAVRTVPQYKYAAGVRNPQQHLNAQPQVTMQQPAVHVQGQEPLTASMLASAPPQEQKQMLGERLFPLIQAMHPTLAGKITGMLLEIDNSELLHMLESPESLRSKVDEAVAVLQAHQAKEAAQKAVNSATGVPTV
Assay: PABP1 MLLE–PAM2 binding inhibitor potency, dose response, biochemical, fluorescence polarization, FITC-PAM2 peptide (AID 602259)
Type: functional
Details: read-out: IC50_Mean
Calls of active or inactive are those of the source.
Attribute: IC50

Examples from the recorded data:
> print(dat)
                                 compound  recorded.endpoint      endpoint.value
1  CCCCc1c(O)n(-c2ccccc2)c(SCCN(C)C)nc1=O               IC50  > 66 µM (inactive)
2               COc1ccc(NC(=O)c2ccco2)cn1               IC50  34.1 µM (inactive)

Problem: IC50 for CC(C)(C)NC(=O)CN(C(=O)CCN1CCCc2ccccc21)C(C)(C)C ?
Solution: > 66 µM (inactive)

* * *

Molecular target: Histone-lysine N-methyltransferase NSD2 (Homo sapiens)
Sequence (O96028 whole entry): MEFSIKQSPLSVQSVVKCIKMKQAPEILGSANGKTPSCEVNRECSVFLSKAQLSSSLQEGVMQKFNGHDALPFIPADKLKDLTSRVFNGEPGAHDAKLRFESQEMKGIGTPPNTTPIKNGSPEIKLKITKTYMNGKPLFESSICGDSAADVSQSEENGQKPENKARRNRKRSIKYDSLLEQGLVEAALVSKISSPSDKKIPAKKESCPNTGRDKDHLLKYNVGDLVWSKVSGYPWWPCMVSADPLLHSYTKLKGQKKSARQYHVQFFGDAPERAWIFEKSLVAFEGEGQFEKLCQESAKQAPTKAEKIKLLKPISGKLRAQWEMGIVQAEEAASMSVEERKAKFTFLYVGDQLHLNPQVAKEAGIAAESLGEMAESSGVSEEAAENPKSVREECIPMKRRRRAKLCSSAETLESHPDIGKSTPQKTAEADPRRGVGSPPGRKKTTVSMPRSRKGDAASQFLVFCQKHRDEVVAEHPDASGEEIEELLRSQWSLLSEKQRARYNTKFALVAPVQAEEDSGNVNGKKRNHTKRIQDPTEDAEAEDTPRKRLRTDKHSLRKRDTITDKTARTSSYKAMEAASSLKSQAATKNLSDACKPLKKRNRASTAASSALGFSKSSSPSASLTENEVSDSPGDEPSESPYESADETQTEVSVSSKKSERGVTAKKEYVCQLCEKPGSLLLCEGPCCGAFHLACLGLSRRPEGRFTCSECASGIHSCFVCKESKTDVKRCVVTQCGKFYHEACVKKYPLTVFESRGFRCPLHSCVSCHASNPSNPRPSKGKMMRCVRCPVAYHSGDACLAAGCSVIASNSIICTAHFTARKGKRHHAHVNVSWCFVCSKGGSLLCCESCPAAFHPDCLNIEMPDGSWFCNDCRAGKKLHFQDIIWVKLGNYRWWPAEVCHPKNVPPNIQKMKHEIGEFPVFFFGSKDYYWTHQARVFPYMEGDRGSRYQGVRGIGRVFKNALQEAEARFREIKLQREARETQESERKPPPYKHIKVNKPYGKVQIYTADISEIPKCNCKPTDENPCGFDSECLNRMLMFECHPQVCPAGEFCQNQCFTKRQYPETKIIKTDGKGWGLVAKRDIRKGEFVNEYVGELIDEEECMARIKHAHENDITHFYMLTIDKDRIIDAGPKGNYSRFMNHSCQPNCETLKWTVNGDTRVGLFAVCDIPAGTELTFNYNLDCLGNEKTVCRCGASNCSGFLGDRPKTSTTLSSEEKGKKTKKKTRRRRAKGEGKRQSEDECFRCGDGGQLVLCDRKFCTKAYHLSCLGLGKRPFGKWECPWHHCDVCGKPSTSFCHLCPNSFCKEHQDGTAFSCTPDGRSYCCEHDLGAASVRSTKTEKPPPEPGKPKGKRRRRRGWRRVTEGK
Assay type: biochemical
Active and inactive are the calls of the source.
Log the outcome using a class from active, inactive

// below: answered compounds
> print(dat)
                               entry.smiles  label.class
1  CCN(CC)CCCNc1nc(-n2nc(C)cc2C)nc2sc3c(c12)CC(C)(C)OC3     inactive
2          CC(=O)Nc1ccc(Sc2ccccc2C(=O)O)cn1       active
3      Nc1ccc(C2(c3ccc(N)cc3)CN3CCC2CC3)cc1       active
4  CCN(CC)CCCNc1nc(CN2CCOCC2)nc2sc3c(c12)CCC3     inactive
5           O=C1C(=C(I)I)c2ccccc2-c2ccccc21       active
6  O=C(/C=C/c1ccco1)Nc1scc(-c2ccccc2)c1C(=O)O     inactive

Problem: GET /call?item= O=C(O)c1ccc(-n2cccc2/C=N\NC(=O)c2cc3cc(Br)ccc3o2)cc1 returns the recorded outcome of this test.
Solution: active

* * *

Target: Leucine aminopeptidase (Plasmodium falciparum 3D7, UniProt Q8IL11)
Sequence (Q8IL11 whole entry): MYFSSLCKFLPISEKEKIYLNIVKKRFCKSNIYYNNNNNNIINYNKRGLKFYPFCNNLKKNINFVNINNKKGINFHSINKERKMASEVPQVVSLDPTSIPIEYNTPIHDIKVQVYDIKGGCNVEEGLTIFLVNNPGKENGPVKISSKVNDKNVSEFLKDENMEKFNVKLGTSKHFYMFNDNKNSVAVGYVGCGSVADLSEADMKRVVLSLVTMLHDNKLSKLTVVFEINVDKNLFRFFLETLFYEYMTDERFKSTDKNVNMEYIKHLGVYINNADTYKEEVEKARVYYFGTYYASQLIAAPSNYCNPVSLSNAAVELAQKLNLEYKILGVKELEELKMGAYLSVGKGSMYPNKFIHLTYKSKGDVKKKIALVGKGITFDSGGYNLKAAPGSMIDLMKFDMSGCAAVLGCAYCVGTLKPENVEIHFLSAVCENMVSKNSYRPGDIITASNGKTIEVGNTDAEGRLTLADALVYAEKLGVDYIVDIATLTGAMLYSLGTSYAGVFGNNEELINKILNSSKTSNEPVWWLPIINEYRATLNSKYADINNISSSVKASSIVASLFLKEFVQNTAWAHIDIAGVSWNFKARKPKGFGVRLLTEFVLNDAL
Experiment: P. falciparum M17LAP inhibitors, primary screen, biochemical, fluorogenic H-Leu-NHMec substrate, 1536-well (AID 1619)
Assay type: functional
Active and inactive are the calls of the source.
Attribute: IC50

Examples from the recorded data:
> print(dat)
                                   molecule  recorded.endpoint    endpoint.value
1  CCc1nnc(NS(=O)(=O)c2ccc(/N=C/c3c(C)nn(-c4ccc(C)c(C)c4)c3O)cc2)s1               IC50  14.4 µM (active)
2                Nc1nnc(Nc2ccc(Cl)cc2)[nH]1               IC50   6.6 µM (active)

Let us move to another entry and its IC50.
Problem: IC50 for CCCCCCSc1nc(O)c(C2OC(=O)c3c2ccc(OC)c3OC)c(=O)n1-c1ccccc1 (stereo not drawn) ?
Solution: 4.82 µM (active)

* * *

Assay: inhibitors of firefly luciferase expression or activity, dose response, H4 neuroglioma cells, luminescence (AID 1990)
Type: functional, cell-based
Active and inactive are the calls of the source.
Attribute: EC50

Examples from the recorded data:
> print(dat)
                                   compound  recorded.endpoint         endpoint.value
1  Oc1c(CN2CCN(c3ccccn3)CC2)cc(Cl)c2cccnc12               EC50       2.52 µM (active)
2        CN1C(=O)C2(N=c3ccccc3=N2)c2ccccc21               EC50       79.5 µM (active)
3  CCOc1cc(C(=O)CSc2nnc(CNc3ccc(Cl)cc3)o2)ccc1NC(=O)CC               EC50  > 120 µM (not active)
4       Cc1ccc(S(=O)(=O)Nc2cccc3cccnc23)cc1               EC50       13.7 µM (active)
5  CCc1ccc(/C=C/C(=O)c2cc(Br)ccc(=O)c2O)cc1               EC50  > 120 µM (not active)
6             CC(C)n1nnnc1-c1cc(Cl)cc(Cl)c1               EC50  > 120 µM (not active)
7  COc1ccc(C2=NOC(C(=O)NCc3ccc(F)cc3)C2)cc1OC (stereo not drawn)               EC50       11.2 µM (active)

Let us move to another entry and its EC50.
Problem: EC50 for COc1ccc2c(c1)sc(N)[n+]2Cc1cc(C)cc2cccnc12 ?
Solution: 7.07 µM (inconclusive)

* * *

Attribute: AC50
Biological target: UniProt P55789
Sequence (P55789 whole entry): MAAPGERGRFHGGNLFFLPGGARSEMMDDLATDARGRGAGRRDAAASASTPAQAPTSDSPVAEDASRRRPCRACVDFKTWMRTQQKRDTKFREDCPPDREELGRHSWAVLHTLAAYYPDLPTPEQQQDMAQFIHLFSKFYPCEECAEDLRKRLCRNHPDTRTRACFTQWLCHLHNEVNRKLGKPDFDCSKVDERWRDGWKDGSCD
Assay: inhibitors of human ALR sulfhydryl oxidase, dose response, biochemical, H2O2 detection, luminescence, cherry-pick (AID 493248)
Activity calls are given as the source filed them.

Examples from the recorded data:
> print(dat)
                                   molecule     endpoint.value
1  C/C(=N\NC(=O)c1cccc(N2CCCC2=O)c1)c1ccc(N)cc1   1.61 µM (active)
2     CC1CCN(CC(=O)Nc2ccc(N3CCCCCC3)cc2)CC1  0.448 µM (active)
3  CC1CCCCN1c1ccc(N)cc1C(N)=O (stereo not drawn)   11.1 µM (active)
4            Cc1cc(C)nc(NNC(=O)c2ccccc2O)n1   5.66 µM (active)
5  CC(C)(C)NC(=O)CN(C(=O)CCN1CCCc2ccccc21)C(C)(C)C   4.37 µM (active)
6        CC(=O)N1CCN=C1SCc1cccc(C(F)(F)F)c1   7.34 µM (active)

Problem: UniProt P55789 / AC50 / Cc1c(C)c(C)c(C(=O)c2ccc(NC(=O)c3ccccc3C(=O)O)cc2)c(C)c1C : value?
Solution: 5.32 µM (active)

Problem: What do you get for Nc1n[nH]c(N2CCN(c3cccc(Cl)c3)CC2)n1 ?
Solution: 1.25 µM (active)

* * *

Target: Caspase-3 (Homo sapiens);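 note: Dose-response selectivity test against caspase-3 for candidate inhibitors of sentrin-specific proteases (SENPs)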
Assay type: functional
Activity calls are given as the source filed them.
Log the outcome using a class from t for active, f for inactive

// below: answered compounds
> print(dat)
                               entry.smiles  label.class
1  COc1ccc2nc(NC(=O)c3ccc([N+](=O)[O-])o3)sc2c1            t
2  O=C(O)c1ccc(-c2nc(O)c3c(-c4ccccc4)csc3n2)cc1            f
3    Cc1ccc(NC(=O)C(=O)c2c[nH]c3ccccc23)cc1            t

# next compound below
Problem: GET /call?item= COc1nc(C)ccc1-c1noc(-c2cccs2)n1 returns the recorded outcome of this test.
Solution: t

* * *

Test: Luminescence Cell-Based Dose Response HTS to Identify Inhibitors of 5'UTR Stem-Loop Driven Prion Protein mRNA Translation in H4 Neuroglioblastoma Cells. [Related pubchem assays: 1827 (Project Summary), 1813 (Primary HTS)]
Assay type: functional
Activity calls are given as the source filed them.
recorded.endpoint: EC50

> print(dat)
                               entry.smiles  recorded.endpoint        endpoint.value
1  O=C(Cc1coc2cc3c(cc12)CCC3)OCC(=O)N1CCCC1=O               EC50  > 60 µM (not active)
2   Oc1ccccc1-c1nnc(SCCN2CCOCC2)n1Cc1ccccc1               EC50      8.21 µM (active)
3  Cc1c(C(=O)N2CCOCC2)c(S(=O)(=O)Nc2cccc(Br)c2)c(C)n1C               EC50      32.2 µM (active)
4            Cc1cccc(NC(=O)c2onc3c2CCCC3)n1               EC50       8.8 µM (active)

Problem: EC50 for CCOc1cc(C(=O)CSc2nnc(CNc3ccc(Cl)cc3)o2)ccc1NC(=O)CC ?
Solution: 23 µM (active)

Problem: What do you get for CSc1nc(Oc2ccc3ccccc3c2)c2sccc2n1 ?
Solution: > 120 µM (not active)

Problem: What do you get for CCN(CC(=O)Nc1sc2c(c1C#N)CCCC2)Cc1nc(O)c2ccccc2n1 ?
Solution: > 120 µM (not active)

* * *

Biological target: Microphthalmia-associated transcription factor (Homo sapiens, UniProt O75030)
Sequence (O75030 whole entry): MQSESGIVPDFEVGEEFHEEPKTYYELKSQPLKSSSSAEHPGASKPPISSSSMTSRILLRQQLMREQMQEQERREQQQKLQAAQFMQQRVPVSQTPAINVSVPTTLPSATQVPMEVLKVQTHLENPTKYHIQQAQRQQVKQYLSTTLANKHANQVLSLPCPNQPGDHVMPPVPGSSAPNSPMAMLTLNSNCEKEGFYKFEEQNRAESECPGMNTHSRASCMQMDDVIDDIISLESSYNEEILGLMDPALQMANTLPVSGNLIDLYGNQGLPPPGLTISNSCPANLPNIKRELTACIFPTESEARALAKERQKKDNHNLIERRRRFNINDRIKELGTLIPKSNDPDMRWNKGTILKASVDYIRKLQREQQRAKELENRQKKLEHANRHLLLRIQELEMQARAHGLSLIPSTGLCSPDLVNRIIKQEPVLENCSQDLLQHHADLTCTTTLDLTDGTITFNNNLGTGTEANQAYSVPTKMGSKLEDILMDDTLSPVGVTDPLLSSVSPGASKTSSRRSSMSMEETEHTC
Assay: TRPM1 promoter luciferase signal decrease, dose response, MITF inhibitor project, cell-based, SK-MEL-5, cherry-picked, set 3 (AID 493073);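 note: SK-MEL-5 melanoma cells with luciferase driven by the MITF target TRPM1 promoter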
Format: functional
Calls of active or inactive are those of the source.
Attribute: AC50

> print(dat)
                           compound                         system.under.test  endpoint.value
1  Cn1nnnc1Sc1ncnc2scc(-c3cccs3)c12  Microphthalmia-associated transcription factor (Homo sapiens, UniProt O75030)   7 µM (active)

Problem: AC50 for O=C(c1ccccc1)c1cc(Cl)ccc1N1C(=O)C=CC1=O ?
Solution: 11.9 µM (active)

Problem: What do you get for CC1CCCCC1NC(=O)/C(C#N)=C/C=C/c1ccccc1[N+](=O)[O-] (stereo unspecified) ?
Solution: 7.92 µM (active)

Problem: What do you get for CCN(CC)S(=O)(=O)c1ccc(N2CCCC2)c(NC(=O)c2ccc([N+](=O)[O-])o2)c1 ?
Solution: 3.18 µM (active)

Problem: What do you get for CC(C)(C)c1ccc(-c2cc(N)[nH]n2)cc1 ?
Solution: 0.511 µM (active)

Problem: What do you get for CCCCCCCNC(=O)C1(CC2CC(c3ccc(Cl)cc3)=NO2)CCNCC1 (stereo unspecified) ?
Solution: 14 µM (active)
